Reference source for all entries: the supplement of paper PMC10065799

# target-under-test: Jak2 (UniProt O60674)
# Sequence (O60674 whole entry, looked up): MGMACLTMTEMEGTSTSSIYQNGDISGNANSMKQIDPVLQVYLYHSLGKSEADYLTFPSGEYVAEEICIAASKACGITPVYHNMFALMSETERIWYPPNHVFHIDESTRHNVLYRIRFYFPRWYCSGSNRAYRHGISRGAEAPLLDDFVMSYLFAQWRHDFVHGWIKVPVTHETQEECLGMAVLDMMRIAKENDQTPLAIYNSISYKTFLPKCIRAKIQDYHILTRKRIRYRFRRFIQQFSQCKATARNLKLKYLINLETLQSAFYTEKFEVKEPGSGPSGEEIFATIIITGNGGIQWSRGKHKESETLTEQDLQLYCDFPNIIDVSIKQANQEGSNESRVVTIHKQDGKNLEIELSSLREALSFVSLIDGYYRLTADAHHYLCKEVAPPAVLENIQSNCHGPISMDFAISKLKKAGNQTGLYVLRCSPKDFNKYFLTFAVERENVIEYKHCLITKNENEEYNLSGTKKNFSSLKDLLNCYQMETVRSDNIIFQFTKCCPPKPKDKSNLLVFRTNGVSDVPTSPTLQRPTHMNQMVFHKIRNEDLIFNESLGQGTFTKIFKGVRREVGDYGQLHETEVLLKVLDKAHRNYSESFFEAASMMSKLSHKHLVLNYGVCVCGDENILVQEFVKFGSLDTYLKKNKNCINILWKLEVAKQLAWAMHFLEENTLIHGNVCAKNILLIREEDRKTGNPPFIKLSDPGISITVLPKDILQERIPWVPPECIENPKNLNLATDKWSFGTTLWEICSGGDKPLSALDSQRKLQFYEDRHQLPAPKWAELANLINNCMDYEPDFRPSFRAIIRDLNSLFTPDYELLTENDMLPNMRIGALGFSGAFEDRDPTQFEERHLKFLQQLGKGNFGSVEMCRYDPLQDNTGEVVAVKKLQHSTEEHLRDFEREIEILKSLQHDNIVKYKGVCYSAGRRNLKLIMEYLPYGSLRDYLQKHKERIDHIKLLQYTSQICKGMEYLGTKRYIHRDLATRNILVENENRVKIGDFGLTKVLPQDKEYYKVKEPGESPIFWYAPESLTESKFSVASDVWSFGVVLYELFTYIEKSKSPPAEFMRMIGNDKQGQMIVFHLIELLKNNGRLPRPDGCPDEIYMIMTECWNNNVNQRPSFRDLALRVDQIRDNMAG
# test-summary: phosphorylation enrichment, bacterial display (enrichment ratio); higher = better substrate or ligand; peptides without Tyr show the background;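 further: 11-residue human phosphosite peptides and single-mutation variants displayed on the E. coli surface, counted by deep sequencing, each peptide's frequency after selection divided by its frequency in the unselected input library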;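 further: frequency after pTyr selection over input frequency; kinase dosed for 20-30% of maximal phosphorylation in three min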
Could you please report measured phosphorylation enrichment for the items listed next?
Lab note: jot down the number only; don't add units.

Data request, read-out phosphorylation enrichment, for ALAQKYHGGGG [HBB_Y146_H144Q] 0.462

Data request, read-out phosphorylation enrichment, for HFEFKYVINAI [MAOA_Y268_C266F_YF] 1.81

Data request, read-out phosphorylation enrichment, for GSERRYSREGG [PTPRN2_Y139] 0.45

Data request, read-out phosphorylation enrichment, for GCRSKYVRLWG [KCNQ1_Y184_G186R] 0.636

Data request, read-out phosphorylation enrichment, for `VCDALYPPGPP` 0.73

Data request, read-out phosphorylation enrichment, for HRERPYGGGGG [FUS_Y526_R521H] 0.386

Data request, read-out phosphorylation enrichment, for SISLKYEGRVY [ABL1_Y167_R166K] 1.24

Data request, read-out phosphorylation enrichment, for ENELTYYCYKK [CD59_Y86_C89Y] 2.25

Data request, read-out phosphorylation enrichment, for PPPPAYDDMAQ [TNK2_Y635_V638M] 1.14

Data request, read-out phosphorylation enrichment, for ACRSLYGGFVE [MVD_Y164] 0.698

Data request, read-out phosphorylation enrichment, for IDFARYWHGDD [MMP11_Y162] 0.639

Data request, read-out phosphorylation enrichment, for FKPGFYNLKEK [LAMA1_Y490_C485Y_YF] 0.499

Data request, read-out phosphorylation enrichment, for LDTSQYFRLFN [CPT2_Y217_M214T] 4.85

Data request, read-out phosphorylation enrichment, for WQQQSYLASGI [CTNNB1_Y30_D32A] 0.638

Data request, read-out phosphorylation enrichment, for SSEFHCVGGFF [CTSC_Y347_Y347C_YF] 0.858

Data request, read-out phosphorylation enrichment, for AAYNRYDQERF [CDC73_Y293] 0.646

Data request, read-out phosphorylation enrichment, for NREGVYRVFAP [TGFBI_Y537_T538R] 0.484

Data request, read-out phosphorylation enrichment, for FSNPAYYVLEG [INPPL1_Y986_N982S] 3.92

Data request, read-out phosphorylation enrichment, for FQCLRYIKQLG [SAMHD1_Y146_R143C] 1.11

Data request, read-out phosphorylation enrichment, for RPDSPYSRPHD [DOK2_Y271] 0.436

Data request, read-out phosphorylation enrichment, for RWHEGYRQTPR [CD44_Y412_K417R] 0.539

Data request, read-out phosphorylation enrichment, for QKTGDYYDLYG [PTPN11_Y62_N58K] 2.24

Data request, read-out phosphorylation enrichment, for PSQRRYVYYYS [PTEN_Y174] 1.13

Data request, read-out phosphorylation enrichment, for KCCCIYEKPRA [PPP1R11_Y64] 1.34

Data request, read-out phosphorylation enrichment, for RQNQEYEILLD [KRT39_Y379] 1.67

Data request, read-out phosphorylation enrichment, for SWDKRYCEAGC [ITGA2B_Y197_F202C] 0.641

Data request, read-out phosphorylation enrichment, for DYTEAYNSKIK [CLK1_Y305_P307S] 0.965

Data request, read-out phosphorylation enrichment, for AEVDTYCRHNY [HLA-DRB1_Y107_A103E] 0.682

Data request, read-out phosphorylation enrichment, for PTTKTYFPHFD [HBA1_Y43] 0.572

Data request, read-out phosphorylation enrichment, for RQGQAYRGQRV [TSHR_Y706_A703G] 0.48

Data request, read-out phosphorylation enrichment, for NCLREYVAGRF [CRB1_Y711] 0.91

Data request, read-out phosphorylation enrichment, for CKLCQYFLDHL [ATRX_Y1849_Y1847C_YF] 1.16

Data request, read-out phosphorylation enrichment, for AAVDTVCRHNF [HLA-DRB1_Y107_Y107V_YF] 1.15

Data request, read-out phosphorylation enrichment, for PFQGAYLEINK [MYO1B_Y967] 1.24

Data request, read-out phosphorylation enrichment, for MPQNEYIELHR [NSA2_Y6] 0.7

Data request, read-out phosphorylation enrichment, for CTSIHYNFMCN [TP53_Y234_T231S_YF] 1

Data request, read-out phosphorylation enrichment, for FGRTFYNQAIM [MCCC2_Y196] 0.96

Data request, read-out phosphorylation enrichment, for RGRSTYYWPSP [GAGE12J_Y9_R13S] 0.656

Data request, read-out phosphorylation enrichment, for DVVKDYAFVHM [RBM14_Y114] 0.661

Data request, read-out phosphorylation enrichment, for RSHLSYDVTPE [IQGAP3_Y1098_P1097S] 1.05

Data request, read-out phosphorylation enrichment, for RYLTRYIYNRE [HLA-DQB1_Y62_V59L] 1.92

Data request, read-out phosphorylation enrichment, for WKKKIYEESST [MOCS2_Y170_E168K] 0.794

Data request, read-out phosphorylation enrichment, for ALTRSYVREKV [CYP2C8_Y243_I244V] 0.353

Data request, read-out phosphorylation enrichment, for GQSKGYRPKLY [SIPA1L3_Y1376] 0.416

Data request, read-out phosphorylation enrichment, for AARVSYWLASG [DCHS1_Y1582_R1583W] 0.825

Data request, read-out phosphorylation enrichment, for LDPIQYSKHPP [SQSTM1_Y433_T430P] 0.481

Data request, read-out phosphorylation enrichment, for RAFRHYLLKQK [SCN2A_Y1919_R1918H_YF] 0.912

Data request, read-out phosphorylation enrichment, for RAILDYIASKF [GSTA3_Y74_N73D_YF] 0.755

Data request, read-out phosphorylation enrichment, for SRDTRYLVLAV [AMH_Y195] 0.909

Data request, read-out phosphorylation enrichment, for HGTKVYIDPFT [EPHB4_Y590] 0.815

Data request, read-out phosphorylation enrichment, for PFAEPYADFGG [APBA1_Y187_S184A_YF] 0.993

Data request, read-out phosphorylation enrichment, for GAEIVYKSPVV [MAPT_Y711] 0.694

Data request, read-out phosphorylation enrichment, for SGPRRYTIATL [TTR_Y125_A129T] 1.03

Data request, read-out phosphorylation enrichment, for KRRGPYEMSPS [PLPP7_Y172_T174M] 0.459

Data request, read-out phosphorylation enrichment, for KFLENYFDLKK [MMP3_Y41_YF] 1.26

Data request, read-out phosphorylation enrichment, for SLIEHYEPSET [PLCD1_Y258_R257H] 0.983

Data request, read-out phosphorylation enrichment, for LLSVAYKNVVG [YWHAG_Y49] 0.649
